Biological target: Gal(b1-3)GlcNAc(b1-3)Gal(b1-4)Glc
Test: glycan array binding signal (z-score within array); higher = stronger binding
Conditions: glycan notation: IUPAC condensed, linker removed
Many of the other results were omitted from the sample, so the strongest signals are more common in it than they were.
# glycan array binding signal (z-score) listing for each entry below
Write the value as a bare number.

// field: glycan array binding signal (z-score); key: WGA (Triticum vulgare) (protein) QRCGEQGSNMECPNNLCCSQYGYCGMGGDYCGKGCQNGACWTSKRCGSQAGGATCPNNHCCSQYGHCGFGAEYCGAGCQGGPCRADIKCGSQSGGKLCPNNLCCSQWGFCGLGSEFCGGGCQSGACSTDKPCGKDAGGRVCTNNYCCSKWGSCGIGPGYCGAGCQSGGCDAVFAGAITANSTLLAE ; value = -0.373

Continuing:
The value of glycan array binding signal (z-score) measured for the binder LCA (Lens culinaris), P02870 (protein) MASLQTQMISFYLIFLSILLTTIFFFKVNSTETTSFSITKFSPDQKNLIFQGDGYTTKGKLTLTKAVKSTVGRALYSTPIHIWDRDTGNVANFVTSFTFVIDAPSSYNVADEFTFFIAPVDTKPQTGGGYLGVFNSKEYDKTSQTVAVEFDTFYNAAWDPSNKERHIGIDVNSIKSVNTKSWNLQNGERANVVIAFNAATNVLTVTLTYPNSLEEENVTSYTLNEVVPLKDVVPEWVRIGFSATTGAEFAAHEVHSWSFHSELGGTSSSKQAADA turned out to be -0.231

Data credit: the supplement of paper PMC8728848
